Test system: Splenocyte
Method notes: Immunosuppressive activity in BALB/c mouse splenocytes assessed as inhibition of LPS-stimulated B-cell proliferation incubated for 48 hrs by MTT assay
Type: functional, cell-based
pIC50: −log10 of the molar value.
Binary call on pIC50: Met from 5 upward, Not met beneath that.

compound=COc1cc(O)c2c(c1)/C=C/C[C@@H](O)[C@H](O)C(=O)/C=C/C[C@H](C)OC2=O label=Met

*Q* Answer whether pIC50 of COc1c(C)c2c(c(O)c1C/C=C(\C)CCC(=O)OCCN1CCOCC1)C(=O)OC2 [MYCOPHENOLATE MOFETIL] is greater than or equal to 5.
*A* Met

*Q* # iterate: `C[C@H]1C/C=C/[C@@H](O)[C@@H](O)CC/C=C/c2cc(O)cc(O)c2C(=O)O1`
*A* Not met

*Q* # iterate: `C[C@H](O)C[C@@H]1CCCCCc2cc(O)cc(O)c2C(=O)O1`
*A* Not met

*Q* # iterate: `COc1cc(O)c2c(c1)/C=C/CCC(=O)[C@H](O)CCC[C@H](C)OC2=O`
*A* Not met

*Q* # iterate: `COc1cc(O)c2c(c1)/C=C/C[C@H](O)[C@@H](O)C(=O)/C=C/C[C@H](C)OC2=O`
*A* Not met

*Q* # iterate: `COc1cc(O)c2c(c1)/C=C/C[C@@H](O)[C@@H](O)C(=O)CCC[C@H](C)OC2=O`
*A* Not met

*Q* # iterate: `COc1cc(O)c2c(c1)/C=C/C[C@H](O)[C@H](O)C(=O)/C=C/C[C@H](C)OC2=O`
*A* Met

*Q* # iterate: `COc1cc(O)c2c(c1)/C=C/C[C@H](O)C(=O)CCCC[C@H](C)OC2=O`
*A* Not met

----------
# IC50 per entry
Test system: Splenocyte
Method notes: Immunosuppressive activity in BALB/c mouse splenocytes assessed as inhibition of LPS-stimulated B-cell proliferation incubated for 48 hrs by MTT assay
Assay type: functional, cell-based
Field format: number, assumed µM, no unit text.

Worked set:
query_smiles=COc1cc(O)c2c(c1)/C=C/C[C@@H](O)[C@@H](O)C(=O)/C=C/C[C@H](C)OC2=O tested_system=Splenocyte recorded_measurement=11.8
query_smiles=COc1cc(O)c2c(c1)[C@H]1O[C@@H]1C[C@H](O)[C@H](O)C(=O)CCC[C@H](C)OC2=O tested_system=Splenocyte recorded_measurement=8.5

Next compound, please.
*Q* Give its IC50 value. Item: `C[C@H](O)C/C=C/[C@@H]1CCCC(=O)Cc2cc(O)cc(O)c2C(=O)O1`
*A* 10.3

----------
Test system: Splenocyte
Method notes: Immunosuppressive activity in BALB/c mouse splenocytes assessed as inhibition of LPS-stimulated B-cell proliferation incubated for 48 hrs by MTT assay
Assay type: functional, cell-based
# pIC50 per entry
Please express pIC50 as -log10 of the molar concentration.

query_smiles=COc1cc(O)c2c(c1)/C=C/C[C@H](O)[C@H](O)C(=O)C[C@H](O)C[C@H](C)OC2=O tested_system=Splenocyte recorded_measurement=4.66

Next compound, please.
*Q* Give its pIC50 value. Item: `COc1cc(O)c2c(c1)/C=C/C[C@H](O)[C@H](O)C(=O)CCC[C@H](C)OC2=O`
*A* 5.19

# credit: ChEMBL document CHEMBL4813949
